Reference source: patent US9980943B2

Tested on: α7 integrin (LacZ reporter in α7βgal+/− myoblasts)
Test: Myoblast α7+/LacZ integrin FDG assay (Burkin assay in myoblasts, 96-well)
Type: cell-based, mouse
Details: 1 uM; α7+/LacZ myoblasts, 96-well
Measured Burkin Assay in Myoblasts, signal relative to DMSO of individual entries
In your answer, state the number alone without any accompanying words.

In [3]: df
Out[3]:
                                   molecule  measurement
0  Cc1nnc(-c2ccc(N3CCOCC3)c([N+](=O)[O-])c2)o1 [MLS001359861-01]       0.9376

Query: What Burkin Assay in Myoblasts, signal relative to DMSO value was documented for this molecule, Cc1ccccc1NC(=O)NCCCN1CCN(C)CC1 [MLS001197665-01] ?
Result: 1.069

Query: What does the data say about its Burkin Assay in Myoblasts, signal relative to DMSO? Entry: Cc1ccc(NS(=O)(=O)c2ccc3c(c2)NC(=O)CCS3)c(Br)c1 [MLS001095231-01]
Result: 0.9682

Query: Quick one: Burkin Assay in Myoblasts, signal relative to DMSO of CCOc1ccc(Br)cc1S(=O)(=O)Nc1ccc(C(=O)Nc2ccccc2OC)cc1 [MLS000418650-01] ?
Result: 1.069

Query: Param item = CCCOc1nc(SCCC)nc2c1cnn2-c1ccccc1 [MLS000737953-01] ; retrieve measured Burkin Assay in Myoblasts, signal relative to DMSO.
Result: 0.9673
